Cited source: patent US20250084095A1

# protocol_notes: in vitro
# condition_set: both, human, hepatocytes
measurement_type: half-life at 1 μM (h)
Give bare numbers, in h.

Field request: half-life at 1 μM | item: `CC(C)n1c(C(C)(C)O)nc2c(F)cc(-c3nc(N[C@@H]4C[C@H]5CO[C@H](O5)[C@H]4O)ncc3Cl)cc21`
9.26

----------
# Tested on: Phospho-Rb (Ser807/811) in MCF7 cells
# protocol_notes: Phospho-Rb expression inhibition in MCF7 cells quantified by in cell Western
# Assay type: cell-based, human
# condition_set: Homo sapiens, MCF7, 24 h, 24 h incubation, in cell Western, read-out: MCF7, pRb (Ser807/811), IC50
measurement_type: pIC50
One number for each entry, as −log10 of the molar value.

What does the record list as pIC50 for `CC(C)n1c(C(C)(C)O)nc2c(F)cc(-c3nc(N[C@@H]4C[C@H]5CO[C@H](O5)[C@H]4O)ncc3Cl)cc21` ?
7.39
